assay.system: Rap guanine nucleotide exchange factor 3 (Homo sapiens) (UniProt O95398)
Sequence (O95398 whole entry, looked up): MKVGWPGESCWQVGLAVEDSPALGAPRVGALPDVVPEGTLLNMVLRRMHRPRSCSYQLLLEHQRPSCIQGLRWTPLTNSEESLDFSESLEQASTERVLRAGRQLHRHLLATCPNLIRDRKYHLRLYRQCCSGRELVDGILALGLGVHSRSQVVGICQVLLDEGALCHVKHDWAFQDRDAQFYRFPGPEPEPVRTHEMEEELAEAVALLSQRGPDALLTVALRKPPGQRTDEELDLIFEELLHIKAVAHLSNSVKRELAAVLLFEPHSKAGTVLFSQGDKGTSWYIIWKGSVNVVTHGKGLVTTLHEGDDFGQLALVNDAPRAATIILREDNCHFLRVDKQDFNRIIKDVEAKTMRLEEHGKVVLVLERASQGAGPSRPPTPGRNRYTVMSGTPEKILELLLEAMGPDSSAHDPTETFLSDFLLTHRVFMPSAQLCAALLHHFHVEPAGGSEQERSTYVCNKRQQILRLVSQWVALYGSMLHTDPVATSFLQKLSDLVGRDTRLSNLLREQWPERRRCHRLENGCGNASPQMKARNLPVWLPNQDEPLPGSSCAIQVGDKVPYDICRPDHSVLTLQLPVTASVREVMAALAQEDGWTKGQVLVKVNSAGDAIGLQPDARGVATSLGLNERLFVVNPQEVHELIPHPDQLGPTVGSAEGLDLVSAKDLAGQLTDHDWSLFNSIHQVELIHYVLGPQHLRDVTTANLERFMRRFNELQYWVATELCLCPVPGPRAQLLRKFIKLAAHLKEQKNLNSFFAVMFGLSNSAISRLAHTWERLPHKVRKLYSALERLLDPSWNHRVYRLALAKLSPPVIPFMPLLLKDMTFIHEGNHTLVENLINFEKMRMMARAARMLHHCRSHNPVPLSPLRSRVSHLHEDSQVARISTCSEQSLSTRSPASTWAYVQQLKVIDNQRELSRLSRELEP
run.description: Counterscreen qHTS for antagonist of cAMP-regulated guanine nucleotide exchange factor 3 (EPAC1) (AID 1645888);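 also: fluorescence loss as bound BODIPY-GDP is released from Rap1B; % of control where 0% means no effect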
cond: Rap1B-BODIPY-GDP nucleotide exchange, fluorescence; series mostly up to 154 µM
Records with an inconclusive call do not appear. Calls of active or inactive are those of the source. Calls follow the shape of the dose curve; as a rule, active = well fitted inhibition curve with a large enough effect; inconclusive = small, poorly fitted or top-dose-only effect; inactive = no such curve, though single readings can be large or run the other way.
readout.type: activity change, negative = inhibition

Consider the worked cases shown below.
INSERT INTO results (compound, readout_type, data_value) VALUES
  ('N#CC1=C(N)Oc2cc(N)ccc2C1c1ccc(Cl)cc1 (centres undefined)', 'activity change, negative = inhibition', 'inactive'),
  ('Cc1ccc(S(=O)(=O)/N=C2\C=C(NS(=O)(=O)c3ccccc3)C(=O)c3ccccc32)c(C)c1', 'activity change, negative = inhibition', '-5.99% [at 30.8 µM] (inactive)'),
  ('Cc1ccc2[nH]cc(/C=C/c3cc[n+](C)cc3)c2c1', 'activity change, negative = inhibition', 'inactive'),
  ('CC(CNC(=O)c1sc2ncccc2c1-n1cccc1)c1ccccc1 (centres undefined)', 'activity change, negative = inhibition', 'inactive'),
  ('O=C(c1ccc(-c2ccccc2Cl)o1)N1CCC1', 'activity change, negative = inhibition', '-16.6% [at 30.8 µM] (inactive)'),
  ('Cc1cccc(-n2ccnc2SCC(=O)Nc2ccc(F)cc2F)c1C', 'activity change, negative = inhibition', 'inactive');

Annotate the compound `Cc1cc(C)c(S(=O)(=O)c2ccccc2)c(OC(=O)c2c(F)cccc2F)n1` with its measured activity change, negative = inhibition.
8% [at 30.8 µM] (inactive)

Annotate the compound `Nc1ccccc1C(=O)NNc1c2ccccc2nc2ccccc12` with its measured activity change, negative = inhibition.
inactive

Annotate the compound `Cc1cc2oc(=O)cc(CN3CCCC3)c2cc1Cl` with its measured activity change, negative = inhibition.
3.14% [at 30.8 µM] (inactive)

Annotate the compound `O=C(O)COc1ccccc1/C=N/Nc1ccc(S(=O)(=O)Nc2ccc(Cl)cc2)cc1[N+](=O)[O-]` with its measured activity change, negative = inhibition.
-8.36% [at 30.8 µM] (inactive)

Annotate the compound `O=C(N/N=C/c1ccccc1O)c1cccc(C(F)(F)F)c1` with its measured activity change, negative = inhibition.
-7.23% [at 30.8 µM] (inactive)

---

assay.system: Rap guanine nucleotide exchange factor 3 (Homo sapiens) (UniProt O95398)
run.description: Counterscreen qHTS for agonist of cAMP-regulated guanine nucleotide exchange factor 3 (EPAC1) (AID 1645889); also: % of control where 0% means no effect; nearly all actives have a fitted effect of over 40% in size
cond: EPAC1 Rap1B-BODIPY-GDP exchange, fluorescence; series mostly up to 154 µM
Inconclusive results are not listed. Active and inactive are the calls of the source. The call rests on the fitted dose curve; in most records, active means well fitted activation curve with a large enough effect; inconclusive means small, poorly fitted or top-dose-only effect, or another doubt; inactive means no such curve, though single readings can be large or run the other way.
readout.type: activation

Consider the worked cases shown below.
INSERT INTO results (molecule, assay_system, readout_type, data_value) VALUES
  ('O=C(O)Cc1ccc(NC(=O)C(c2ccccc2)c2ccccc2)cc1', 'Rap guanine nucleotide exchange factor 3 (Homo sapiens) (UniProt O95398)', 'activation', '5.55% [at 30.8 µM] (inactive)'),
  ('Cn1c(SCC(=O)Nc2cccc(C(=O)O)c2)nnc1-c1cc2cc(Br)ccc2o1', 'Rap guanine nucleotide exchange factor 3 (Homo sapiens) (UniProt O95398)', 'activation', 'inactive'),
  ('O=S(=O)(c1ccc(Br)c2ccccc12)N1CCCC1', 'Rap guanine nucleotide exchange factor 3 (Homo sapiens) (UniProt O95398)', 'activation', 'inactive'),
  ('COc1ccc(/C=N/n2cnc3c([nH]c4ccc(F)cc43)c2=O)cc1CN1CCCC1', 'Rap guanine nucleotide exchange factor 3 (Homo sapiens) (UniProt O95398)', 'activation', 'inactive');

Annotate the molecule `C[C@@H]1CC=C[C@H]2[C@H]1C(=O)N(Cc1ccccc1)[C@H]2c1ccc(C(F)(F)F)cc1` with its measured activation.
7.88% [at 30.8 µM] (inactive)

Annotate the molecule `CCOC(=O)c1c(NC(=O)/C=C/c2ccc3c(c2)OCO3)sc(C)c1CC` with its measured activation.
inactive

Annotate the molecule `O=S(=O)(Nc1nccs1)c1ccc(Nc2nnc(-c3ccccc3)c3ccccc23)cc1` with its measured activation.
17.5% [at 30.8 µM] (inactive)

Annotate the molecule CCC(Sc1nncn1C)C(=O)Nc1nnc(-c2ccc(Cl)cc2)s1 (stereo not drawn) with its measured activation.
-0.401% [at 30.8 µM] (inactive)

Annotate the molecule `O=C1c2ccccc2-c2onc3c(Br)cc(NC4CCCCC4)c1c23` with its measured activation.
inactive

Annotate the molecule `O=S(=O)(N/N=C/c1cccnc1)c1ccc(Cl)c(Cl)c1` with its measured activation.
6.45% [at 30.8 µM] (inactive)

Annotate the molecule `Nc1nc(C(c2ccccc2)c2ccccc2)cs1` with its measured activation.
inactive

Annotate the molecule `Cc1ccc(S(=O)(=O)NN2C(=O)/C(=C/c3cccc(F)c3)SC2=S)cc1` with its measured activation.
inactive

Annotate the molecule `COc1ccc(C)cc1CN1C(=O)c2ccccc2C1=O` with its measured activation.
12.1% [at 30.8 µM] (inactive)

---

assay.system: Rap guanine nucleotide exchange factor 3 (Homo sapiens) (UniProt O95398)
run.description: Confirmatory qHTS for antagonist of cAMP-regulated guanine nucleotide exchange factor 3 (EPAC1) (AID 1645880); also: nearly all actives have a fitted effect of over 55% in size
cond: EPAC1 Rap1B-BODIPY-GDP exchange, fluorescence
Results filed as inconclusive are left out. The source made the active and inactive calls. Calls follow the shape of the dose curve; as a rule, active = well fitted inhibition curve with a large enough effect; inconclusive = small, poorly fitted or top-dose-only effect; inactive = no such curve, though single readings can be large or run the other way.
Valid outcomes are listed here; reply with one: active, inactive

What classification did `COC(=O)c1ccc2nc(-c3cccc(Br)c3)c(Cc3ccsc3)n2c1` end up with in this test?
inactive

What classification did `COc1cccc(/C=N/NC(=O)c2cc3cc([N+](=O)[O-])ccc3s2)c1O` end up with in this test?
active

What classification did `CC(C)(C)c1ccc(-n2nc(C#N)c(Cl)cc2=O)cc1` end up with in this test?
active

What classification did C=CCOc1ccc(C2N3CC4(CC)CN2CC(CC)(C3)C4=O)cc1 (centres undefined) end up with in this test?
inactive

What classification did `Cc1onc(-c2ccccc2)c1C(=O)N1CCc2ccccc21` end up with in this test?
inactive

What classification did `CSc1ncccc1C(=O)OCc1c(F)cccc1Cl` end up with in this test?
inactive

What classification did `CC(=O)Nc1cccc(/C(C)=N/Nc2ccc(S(=O)(=O)Nc3ccccc3C(=O)O)cc2[N+](=O)[O-])c1` end up with in this test?
active

What classification did `COc1ccc(NC(=O)c2c(-c3ccccc3)c(-c3ccccc3)nn(C)c2=O)c(OC)c1` end up with in this test?
inactive

What classification did `CN1OC[C@@H]2CN(Cc3ccc(Cl)cc3)[C@H](c3ccc(-n4ccnc4)cc3)C[C@@H]21` end up with in this test?
inactive

What classification did `c1ccc(NN(Cc2cnccn2)c2ccccc2)cc1` end up with in this test?
inactive

What classification did COc1cc2c(c(OC)c1OC)C(c1ccc3c(c1)OCO3)CC(=O)O2 (centres undefined) end up with in this test?
inactive

What classification did Cc1ccc(N(C(=O)c2ccccc2Cl)C2=NC(C)CS2)c(C)c1 (centres undefined) end up with in this test?
inactive

What classification did COc1ccc(C(C#N)N2CCC(c3ccccc3)=N2)cc1OC (centres undefined) end up with in this test?
inactive

What classification did `COc1ccc(CN(C(=O)c2cccs2)c2ccccc2)cc1` end up with in this test?
inactive

What classification did `O=C1CC(=O)Nc2cc(S(=O)(=O)Nc3ccc(Cl)c(C(F)(F)F)c3)ccc2N1` end up with in this test?
inactive

What classification did `CCCC[C@@H]1C=C(C(=O)O)[C@H](c2ccc(Cl)c(Cl)c2)N1S(=O)(=O)c1ccc(C)cc1` end up with in this test?
active

What classification did `CSc1ccc(/C=N/NC(=O)CN2CCN(Cc3ccc(Cl)cc3)CC2)cc1` end up with in this test?
inactive

What classification did `CCn1c2ccccc2c2cc(NC(=O)c3ccc(=O)oc3)ccc21` end up with in this test?
inactive

What classification did `O=[N+]([O-])/C=C/c1cn(Cc2ccc(Cl)cc2)c2ccccc12` end up with in this test?
inactive

What classification did `O=C1C=C(c2ccccc2Oc2ccccc2)C[C@@H](c2ccc3c(c2)OCO3)C1` end up with in this test?
inactive

What classification did `COCCN(C(=O)c1cc2c(s1)CCCCC2)c1c(N)n(Cc2ccccc2)c(=O)[nH]c1=O` end up with in this test?
inactive

What classification did `CCOc1cc(/C=N/NC(=O)c2ccc(-c3csc(Nc4ccc(C)cc4)n3)cc2)ccc1OCC(=O)O` end up with in this test?
active

What classification did O=C1C=C(c2ccccc2)C(c2ccccc2)C1 (centres undefined) end up with in this test?
inactive

What classification did `CN1CCN(c2ncc3nc(-c4cccs4)c(=O)n(CCc4ccccc4)c3n2)CC1` end up with in this test?
inactive

---

assay.system: Guanidinoacetate N-methyltransferase (Homo sapiens) (UniProt Q14353)
run.description: Confirmatory Screen for Target Class Profiling of Small Molecule Inhibitors of Methyltransferases (AID 1745852); also: % is scaled to controls: 0 for no effect and ±100 for the full control effect
cond: MTase-Glo luminescence, SAH detection, recombinant enzyme; at 57.3 µM (top of the series) unless noted
readout.type: activity change, negative = inhibition (%)
Give just the number in %; leave the unit off.

Annotate the compound `CCN(CC)CCNC(=O)CCc1nnc2n(Cc3ccc(Cl)cc3)c(=O)c3ccccc3n12` with its measured activity change, negative = inhibition.
0

Annotate the compound `COC(=O)c1nc(NC(=O)Cn2nc3c(cc2=O)CCCC3)sc1C(C)C` with its measured activity change, negative = inhibition.
0.9

Annotate the compound `NC(=O)c1cccc2[nH]c(-c3ccc([C@@H]4CCCN4)cc3F)nc12` with its measured activity change, negative = inhibition.
-8.18

Annotate the compound CCCCN1C(=O)c2cc(C(=O)NCc3ccc(OC)cc3OC)nn2CC1(C)C(=O)NC1CCCC1 (stereo not drawn) with its measured activity change, negative = inhibition.
0

Annotate the compound Cc1nc(NC(=O)C2CC(=O)N(c3n[nH]c4cc(Br)ccc34)C2)sc1C (stereo not drawn) with its measured activity change, negative = inhibition.
3.17

Annotate the compound `c1ccc(CNc2cc(-c3cc(N4CCCCC4)ncn3)c3cc[nH]c3n2)nc1` with its measured activity change, negative = inhibition.
-13.9

Annotate the compound CCCC1c2cccn2CCN1C(=O)Nc1cccc(C(F)(F)F)c1 (stereo not drawn) with its measured activity change, negative = inhibition.
-0.7

Annotate the compound `Cc1cccc(N2CCN(C(=O)CCc3nnc4n(CC(C)C)c(=O)c5ccccc5n34)CC2)c1C` with its measured activity change, negative = inhibition.
2.51

Annotate the compound COc1ccc(CCN2C(=O)c3cc4oc(C)cc4n3CC2(C)C(=O)NC2CCCCC2)cc1OC (stereo not drawn) with its measured activity change, negative = inhibition.
-4.8

Annotate the compound COc1ccc(N2C(=O)c3ccc(-c4ccco4)n3CC2(C)C(=O)NCc2ccccc2)cc1OC (stereo not drawn) with its measured activity change, negative = inhibition.
-2.41

Annotate the compound `Cc1c(C(=O)O)ccc2c1N[C@@H](c1cccc(C(F)(F)F)c1)[C@H]1CC=C[C@@H]21` with its measured activity change, negative = inhibition.
-0.164

Annotate the compound `CCN(CC)CCCNC(=O)CCc1nnc2n(CCc3ccccc3)c(=O)c3ccccc3n12` with its measured activity change, negative = inhibition.
-1.16

Annotate the compound COc1ccc(CN2C(=O)c3cc4sccc4n3CC2(C)C(=O)NC2CCC(C)CC2)cc1OC (stereo not drawn) with its measured activity change, negative = inhibition.
0.162

Annotate the compound Cn1cc(CN2CCCC(COc3ccccc3C(=O)N3CCCCC3)C2)c2ccccc21 (stereo not drawn) with its measured activity change, negative = inhibition.
7.22

Annotate the compound `COc1ccc(CCNc2nc3c(-c4cccc(F)c4)nnn3c3ccccc23)cc1OC` with its measured activity change, negative = inhibition.
-8.63

Annotate the compound `Cc1ccsc1CCNC(=O)Cn1c(=O)oc2cc(S(=O)(=O)N3CCCC3)ccc21` with its measured activity change, negative = inhibition.
-1.17
